Source of measurements: PubChem BioAssay AID504339

- TESTED_TARGET: Lysine-specific demethylase 4A (Homo sapiens) (UniProt O75164)
- Sequence (O75164 whole entry, looked up, the tested form may be a part): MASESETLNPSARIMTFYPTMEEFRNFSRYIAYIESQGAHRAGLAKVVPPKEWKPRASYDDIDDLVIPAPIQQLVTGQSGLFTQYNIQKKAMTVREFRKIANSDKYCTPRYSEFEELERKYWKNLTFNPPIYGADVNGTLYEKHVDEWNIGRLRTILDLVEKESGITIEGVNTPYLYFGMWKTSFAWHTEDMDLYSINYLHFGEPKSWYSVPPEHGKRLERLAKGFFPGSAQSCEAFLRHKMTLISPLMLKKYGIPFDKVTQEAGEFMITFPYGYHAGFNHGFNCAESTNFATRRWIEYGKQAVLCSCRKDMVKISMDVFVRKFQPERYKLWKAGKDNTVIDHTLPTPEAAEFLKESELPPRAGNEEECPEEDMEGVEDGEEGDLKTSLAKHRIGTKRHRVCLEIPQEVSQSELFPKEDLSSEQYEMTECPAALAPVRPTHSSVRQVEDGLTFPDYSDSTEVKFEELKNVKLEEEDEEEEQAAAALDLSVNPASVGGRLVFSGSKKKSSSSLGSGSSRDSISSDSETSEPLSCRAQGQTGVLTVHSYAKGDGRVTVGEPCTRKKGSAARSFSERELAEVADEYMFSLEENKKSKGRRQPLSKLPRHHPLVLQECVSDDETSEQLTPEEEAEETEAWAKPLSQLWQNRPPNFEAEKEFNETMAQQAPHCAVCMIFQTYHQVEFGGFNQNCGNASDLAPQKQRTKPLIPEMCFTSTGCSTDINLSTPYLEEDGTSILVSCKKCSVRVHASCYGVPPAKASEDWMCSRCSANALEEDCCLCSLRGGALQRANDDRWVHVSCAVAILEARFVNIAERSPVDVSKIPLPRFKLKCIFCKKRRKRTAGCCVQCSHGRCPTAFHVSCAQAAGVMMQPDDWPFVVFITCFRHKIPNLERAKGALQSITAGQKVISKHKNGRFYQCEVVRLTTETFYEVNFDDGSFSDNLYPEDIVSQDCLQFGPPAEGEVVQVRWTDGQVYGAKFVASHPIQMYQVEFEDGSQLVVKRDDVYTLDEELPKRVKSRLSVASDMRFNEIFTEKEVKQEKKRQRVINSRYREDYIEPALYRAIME
- TEST_DETAILS: qHTS Assay for Inhibitors of JMJD2A-Tudor Domain; note: nearly all actives have a fitted effect of over 50% in size
- REPORTED_CONDITIONS: AlphaScreen JMJD2A-Tudor / H3K4me3 peptide binding; series mostly up to 114 µM
The campaign covered roughly 390,000 compounds. About 17,000 (4.4%) were called active. Another 8% or so got no clear call; they are omitted. Calls come from the whole dose curve; as a rule, active = well fitted inhibition curve with a large enough effect; inconclusive = small, poorly fitted or top-dose-only effect; inactive = no such curve, though single readings can be large or run the other way. What follows is part of a selection rich in actives, with near analogues and random picks from the rest.
Outcomes: active, inactive

- MOLECULE: "CCc1ccc(S(=O)(=O)Nc2cc3c(C(=O)OCc4ccccc4)c(C)oc3c3ccccc23)cc1"
  ASSIGNED_LABEL: "inactive"
- MOLECULE: "COc1ccc(CNC(=O)c2cc3c(=O)[nH]c4ccccc4c3s2)cc1"
  ASSIGNED_LABEL: "inactive"
- MOLECULE: "CCN(CC)CCNC(=O)CN1N=C(c2ccc(OC)cc2)CCC1=O"
  ASSIGNED_LABEL: "inactive"
- MOLECULE: "Cc1cccc(CSc2nc3ccncc3n2Cc2ccc(C(=O)O)cc2)c1"
  ASSIGNED_LABEL: "inactive"
- MOLECULE: "O=C(CSCc1cnn(-c2ccccc2)c1-n1cccc1)NCc1ccccc1Br"
  ASSIGNED_LABEL: "inactive"
- MOLECULE: "CCOc1ccc(CNC(=O)Cn2cc3c(n2)-c2c(oc(C(=O)N4CCCC4)c2C)CC3)cc1"
  ASSIGNED_LABEL: "inactive"
- MOLECULE: "COc1cccc(Cn2c(SCc3ccc(C(=O)N4CCCCC4)cc3)nc3ccncc32)c1"
  ASSIGNED_LABEL: "inactive"
- MOLECULE: "COc1ccc(CCNc2nc(-c3ccc(F)cc3)cc(C(F)(F)F)n2)cc1OC"
  ASSIGNED_LABEL: "inactive"
- MOLECULE: "C=CCc1ccccc1OCC(O)CN1CCN(CCO)CC1 (stereo not given)"
  ASSIGNED_LABEL: "inactive"
- MOLECULE: "COc1cccc(Cn2c(SCc3ccc(C(=O)N4CCC(C)CC4)cc3)nc3ccncc32)c1"
  ASSIGNED_LABEL: "active"

----------
- TESTED_TARGET: Lysine-specific demethylase 4A (Homo sapiens)
- TEST_DETAILS: qHTS Assay for Inhibitors of JMJD2A-Tudor Domain; note: nearly all actives have a fitted effect of over 50% in size
- REPORTED_CONDITIONS: AlphaScreen JMJD2A-Tudor / H3K4me3 peptide binding; series mostly up to 114 µM
In all, about 390,000 compounds went through this assay and about 17,000 (4.4%) were called active. About 8% were inconclusive and are not listed. The call rests on the fitted dose curve; in most records, active means well fitted inhibition curve with a large enough effect; inconclusive means small, poorly fitted or top-dose-only effect; inactive means no such curve, though single readings can be large or run the other way. The entries come from a sample that favours actives as a whole.
Outcomes: Yes (active), No (inactive)

- COMPOUND: "Cc1ccc2c(c1)C1CN(C)CCC1N2S(=O)(=O)c1ccc(Oc2ccc([N+](=O)[O-])cc2)cc1 (stereo not given)"
  ASSIGNED_LABEL: "Yes"
- COMPOUND: "Cc1nn(CC(=O)NCCc2ccccc2)c(=O)c2c1sc1ccccc12"
  ASSIGNED_LABEL: "No"
- COMPOUND: "CCOc1ccccc1N(CC)C(=O)c1cc2ccc3cccnc3c2[nH]1"
  ASSIGNED_LABEL: "No"
- COMPOUND: "COc1ccc(CCNC(=O)c2cnc3sc(N4CCCCCC4)nn3c2=O)cc1OC"
  ASSIGNED_LABEL: "No"
- COMPOUND: "Cc1ccc2c(c1)C1CN(C)CCC1N2S(=O)(=O)c1cccc(F)c1 (stereo not given)"
  ASSIGNED_LABEL: "No"
- COMPOUND: "Cc1ccc2c(c1)C1CN(C)CCC1N2C(=S)Nc1ccc(OC(F)F)cc1 (stereo not given)"
  ASSIGNED_LABEL: "No"
- COMPOUND: "Cc1ccc(C)c(N2CCN(C(=O)Cn3ncn4cccc4c3=O)CC2)c1"
  ASSIGNED_LABEL: "No"
- COMPOUND: "CCN(CC)CCN(C(=O)c1cccc([N+](=O)[O-])c1)c1nc2ccc(OC)cc2s1"
  ASSIGNED_LABEL: "No"
- COMPOUND: "COc1ccc2sc(N(CCCN(C)C)C(=O)c3ccc(S(=O)(=O)N(C)C4CCCCC4)cc3)nc2c1"
  ASSIGNED_LABEL: "Yes"
- COMPOUND: "Cc1ccc(C)c(N2CCN(C(=O)Cn3nc(C)c4sc5ccccc5c4c3=O)CC2)c1"
  ASSIGNED_LABEL: "Yes"

----------
- TESTED_TARGET: Lysine-specific demethylase 4A (Homo sapiens)
- TEST_DETAILS: qHTS Assay for Inhibitors of JMJD2A-Tudor Domain; note: nearly all actives have a fitted effect of over 50% in size
- REPORTED_CONDITIONS: AlphaScreen JMJD2A-Tudor / H3K4me3 peptide binding; series mostly up to 114 µM
Out of some 390,000 compounds screened, about 17,000 (4.4%) were called active. Inconclusive results (about 8%) are left out. Calls follow the shape of the dose curve; as a rule, active = well fitted inhibition curve with a large enough effect; inconclusive = small, poorly fitted or top-dose-only effect; inactive = no such curve, though single readings can be large or run the other way. Shown is part of a subset that was picked to be rich in actives.
Outcomes: active, inactive

- MOLECULE: "CCN(CC)S(=O)(=O)c1cccc(-c2n[nH]c(=S)n2/N=C/c2ccc(C(=O)OC)cc2)c1"
  ASSIGNED_LABEL: "active"
- MOLECULE: "CCCC(=O)Nc1cc2nn(-c3ccccc3)nc2cc1C"
  ASSIGNED_LABEL: "inactive"
- MOLECULE: "Cc1ccccc1CSc1nc2c([nH]c3ccccc32)c(=O)n1C"
  ASSIGNED_LABEL: "inactive"
- MOLECULE: "CCc1c(C)[nH]c(=S)c(C#N)c1C"
  ASSIGNED_LABEL: "active"
- MOLECULE: "CCOCCCNC(=O)c1c(NC(=O)Cc2coc3c(C)c(C)ccc23)sc2c1CCC2"
  ASSIGNED_LABEL: "inactive"
- MOLECULE: "Cc1cccc2nc(-c3ccc(Cl)s3)c(Nc3ccc4c(c3)OCCO4)n12"
  ASSIGNED_LABEL: "active"
- MOLECULE: "Oc1ccc(-c2nc3ccc(Cl)cn3c2Nc2ccc3c(c2)OCO3)cc1"
  ASSIGNED_LABEL: "inactive"
- MOLECULE: "COC(=O)C(C)Oc1ccc2c(c1)O/C(=C\\c1cccc(Br)c1)C2=O (configuration not stated)"
  ASSIGNED_LABEL: "inactive"
- MOLECULE: "COCCCn1c(SCC(=O)NC2CCCC2)nnc1-c1ccccc1"
  ASSIGNED_LABEL: "inactive"
- MOLECULE: "CSc1ccc(S(=O)(=O)NCc2ccc(Cl)cc2)cc1"
  ASSIGNED_LABEL: "inactive"
- MOLECULE: "Cc1ccc(CN2COc3cc(C)c4c(oc(=O)c5ccccc54)c3C2)cc1"
  ASSIGNED_LABEL: "inactive"
- MOLECULE: "COc1ccc(C)cc1NC(=O)C(=O)NCCc1sc(-c2cccc(C)c2)nc1C"
  ASSIGNED_LABEL: "inactive"
- MOLECULE: "COCCCn1c(Cc2csc(Nc3cccc(Cl)c3)n2)nnc1SCC(=O)OC1CCCCC1"
  ASSIGNED_LABEL: "active"
- MOLECULE: "CC(=O)O[C@H]1c2ccccc2-c2ccccc2[C@@H]1OC(C)=O"
  ASSIGNED_LABEL: "inactive"
- MOLECULE: "CCCS(=O)(=O)N1CCC(n2c(C(F)(F)F)nc3cccnc32)CC1"
  ASSIGNED_LABEL: "inactive"
- MOLECULE: "COc1cc(/C=C2\\Oc3ccc(C#Cc4ccc(O)cc4)cc3C2=O)cc(OC)c1"
  ASSIGNED_LABEL: "active"
- MOLECULE: "Cc1ccc(N2CCN(C(=O)CCc3c(C)nc4c(c3C)c(=O)n(C)c(=O)n4C)CC2)c(C)c1"
  ASSIGNED_LABEL: "inactive"
- MOLECULE: "COc1ccc(NC(=O)Cn2c(=O)cc(C)c3c(C)nn(-c4cccc(Cl)c4C)c32)cc1OC"
  ASSIGNED_LABEL: "inactive"
- MOLECULE: "CCc1nc2c(cnn2-c2ccc(C)cc2)c(=O)n1-c1ccc(C)cc1"
  ASSIGNED_LABEL: "inactive"
- MOLECULE: "CCn1c(CNS(=O)(=O)c2ccc(Cl)cc2)n[nH]c1=S"
  ASSIGNED_LABEL: "active"
- MOLECULE: "CCN(CC)S(=O)(=O)c1cccc(NC(=O)c2ccc(S(=O)(=O)N3CCCC3)cc2)c1"
  ASSIGNED_LABEL: "inactive"
- MOLECULE: "N#Cc1nc(Nc2cccc(Cl)c2)nc(NC2CCCC2)n1"
  ASSIGNED_LABEL: "inactive"

----------
- TESTED_TARGET: Lysine-specific demethylase 4A (Homo sapiens)
- TEST_DETAILS: qHTS Assay for Inhibitors of JMJD2A-Tudor Domain; note: nearly all actives have a fitted effect of over 50% in size
- REPORTED_CONDITIONS: AlphaScreen JMJD2A-Tudor / H3K4me3 peptide binding; series mostly up to 114 µM
Among all 390,000 compounds or so, about 17,000 (4.4%) were called active. About 8% were inconclusive and are not listed. Calls come from the whole dose curve; as a rule, active = well fitted inhibition curve with a large enough effect; inconclusive = small, poorly fitted or top-dose-only effect; inactive = no such curve, though single readings can be large or run the other way. The entries come from a sample that favours actives as a whole.
Outcomes: TRUE for active, FALSE for inactive

- MOLECULE: "CN(C)c1nccc(NCc2ccccc2)c1C#N"
  ASSIGNED_LABEL: "FALSE"
- MOLECULE: "COc1cccc2c(O)cc(=O)n(C)c12"
  ASSIGNED_LABEL: "FALSE"
- MOLECULE: "CCC(CO)Oc1cc(NC(=O)c2ccc(Cl)cc2)c2ncn(C(C)C)c2c1 (configuration not stated)"
  ASSIGNED_LABEL: "FALSE"
- MOLECULE: "CCOC(=O)CSc1ncc(-c2cccc(Cl)c2)cn1"
  ASSIGNED_LABEL: "FALSE"
- MOLECULE: "Cc1ccccc1NC(=O)c1c(NC(=O)c2ccccc2F)sc2c1CCC(C)C2 (configuration not stated)"
  ASSIGNED_LABEL: "FALSE"
- MOLECULE: "CCN(CCCNC(=O)Cn1ncc2c3ccccc3n(C)c2c1=O)Cc1ccccc1"
  ASSIGNED_LABEL: "FALSE"
- MOLECULE: "Cc1ccccc1NC(=O)c1cc(S(=O)(=O)Nc2cccc(C(=O)O)c2)ccc1Cl"
  ASSIGNED_LABEL: "FALSE"
- MOLECULE: "Cc1ccc(Nc2cc(C)nc3c(C)ccc([N+](=O)[O-])c23)cc1"
  ASSIGNED_LABEL: "TRUE"
- MOLECULE: "CC(=O)NC(c1cccs1)c1cc(Cl)c2cccnc2c1O (configuration not stated)"
  ASSIGNED_LABEL: "FALSE"
- MOLECULE: "CCOc1ccccc1NC(=O)CSc1ncc(S(=O)(=O)c2ccc(C(C)(C)C)cc2)c(=O)[nH]1"
  ASSIGNED_LABEL: "FALSE"
- MOLECULE: "O=C(NC(c1ccco1)c1cc(Cl)c2cccnc2c1O)c1ccccc1 (configuration not stated)"
  ASSIGNED_LABEL: "FALSE"
- MOLECULE: "COc1cc(O)c2c(=O)c3c(O)c(O)ccc3oc2c1OC"
  ASSIGNED_LABEL: "TRUE"
- MOLECULE: "CC(C)c1ccc(NC(=O)c2cc(S(=O)(=O)N3CCc4ccccc4C3)ccc2F)cc1"
  ASSIGNED_LABEL: "FALSE"
- MOLECULE: "Cc1cc(C)n2ncc(C(=O)N3CCCC3)c2n1"
  ASSIGNED_LABEL: "FALSE"
- MOLECULE: "Cc1cc(Nc2ccc(C(=O)N3CCCCC3)cc2)c2cccc(C)c2n1"
  ASSIGNED_LABEL: "FALSE"
- MOLECULE: "CC(C)n1cnc2c(NCc3ccccc3)cc(OCC3CCN(C)CC3)cc21"
  ASSIGNED_LABEL: "TRUE"
- MOLECULE: "Cc1oc(-c2cccc(Cl)c2)[n+]([O-])c1C"
  ASSIGNED_LABEL: "TRUE"
- MOLECULE: "CCOC(=O)N1CCN(C(c2cccnc2)c2ccc3cccnc3c2O)CC1 (configuration not stated)"
  ASSIGNED_LABEL: "TRUE"
- MOLECULE: "CCN1CCN(C(c2cccnc2)c2cc(Cl)c3cccnc3c2O)CC1 (configuration not stated)"
  ASSIGNED_LABEL: "TRUE"
- MOLECULE: "O=C(NCCc1ccccc1)C(=O)NCC(c1ccco1)S(=O)(=O)c1ccccc1 (configuration not stated)"
  ASSIGNED_LABEL: "FALSE"
- MOLECULE: "COc1cccc2cc(-c3cc(=O)oc4cc(C)c(O)cc34)oc12"
  ASSIGNED_LABEL: "FALSE"
- MOLECULE: "COc1ccccc1N1CCN(C(CNC(=O)C(=O)NCc2ccc(C)cc2)c2cccnc2)CC1 (configuration not stated)"
  ASSIGNED_LABEL: "FALSE"
